system: HCT-116 colon; assay: NCI tumour cell line growth inhibition, 48 h
measurement.type: log10(TGI) (log10 of the value in µM)
Heads up: the numbers are on a log10 scale; they represent TGI in µM.

Using the record for `O=[N+]([O-])c1ccc2c3c1[C@@H]1O[C@@H]1c1cccc(c1-3)[C@@H]1O[C@H]21` , report its log10(TGI).
0.77

Using the record for `COc1cc(Nc2nc3cc(C)ccc3nc2-c2ccccc2)cc(OC)c1OC` , report its log10(TGI).
1.66

Using the record for CCN(CC)c1ccc(Cl)c2c1C(O)(C(C)C)C2(C)C (stereo not given) , report its log10(TGI).
1.43

Using the record for `N#C[Se]CCN1C(=O)c2ccccc2C1=O` , report its log10(TGI).
0.51

Using the record for `COc1ccc(-n2c(=O)c3ccccc3n(Cc3ccc(C(=O)NO)cc3)c2=O)cc1` , report its log10(TGI).
0.62

Using the record for `CCOC(=O)c1c(C)n(-c2ccc(C)cc2)c(=O)c2ccccc2c(=O)c2c(=O)ccc(=O)c1=2` , report its log10(TGI).
1.52

Data provenance is PubChem BioAssay (NCI).
